System: OVCAR-4
Test: NCI tumour cell line growth inhibition, 48 h
The source made the active and inactive calls. No stated cut-off is given here; in the data, active = GI50 up to about 1.1 µM and inactive = higher.
Recorded GI50, one value per entry.
measured.parameter: GI50

molecule=CC1=C(C(=O)Nc2cccc(C(F)(F)F)c2)C(c2ccc(O)cc2)C(C(=O)Nc2cccc(C(F)(F)F)c2)=C(C)N1 result="14.8 µM (inactive)"
molecule=C[n+]1c(-c2ccc(/C=N/NC(=O)c3ccc(C(=O)N/N=C/c4ccc(-c5cn6ccccc6[n+]5C)cc4)cc3)cc2)cn2ccccc21 result="> 100 µM (inactive)"
molecule="O=P(c1ccccc1)(c1ccccc1)C(NCc1ccccc1)c1ccc(F)cc1 (stereo not given)" result="20.3 µM (inactive)"
molecule=COC(=O)/C=c1\s/c(=C\C(=O)OC)c2ccccc12 result="> 100 µM (inactive)"
molecule=CCc1c(-c2coc(CC/C(C)=C/c3ccccc3)n2)oc(OC)c(C)c1=O result="> 39 µM (inactive)"
molecule=N#CCCOc1cccc(C2(N3CCCCC3)CCCCC2)c1 result="> 100 µM (inactive)"
molecule=CCN1CCCc2cc3c(C(F)(F)F)cc(=O)oc3cc21 result="> 100 µM (inactive)"
molecule="COc1ccc(C2c3cc4c(cc3OC(N3CCOCC3)C2C)OCO4)cc1OC (stereo not given)" result="15.8 µM (inactive)"
molecule="CC(CO)(CO)N1C(=O)C2C3C=CC(C3)C2C1=O (stereo not given)" result="> 100 µM (inactive)"
molecule=COc1cc(/N=C\N(C)C)c2ncccc2c1 result="> 100 µM (inactive)"
